Biological target: NAMPT (human, recombinant, C-terminally His-tagged) (Homo sapiens)
Sequence (P43490 whole entry): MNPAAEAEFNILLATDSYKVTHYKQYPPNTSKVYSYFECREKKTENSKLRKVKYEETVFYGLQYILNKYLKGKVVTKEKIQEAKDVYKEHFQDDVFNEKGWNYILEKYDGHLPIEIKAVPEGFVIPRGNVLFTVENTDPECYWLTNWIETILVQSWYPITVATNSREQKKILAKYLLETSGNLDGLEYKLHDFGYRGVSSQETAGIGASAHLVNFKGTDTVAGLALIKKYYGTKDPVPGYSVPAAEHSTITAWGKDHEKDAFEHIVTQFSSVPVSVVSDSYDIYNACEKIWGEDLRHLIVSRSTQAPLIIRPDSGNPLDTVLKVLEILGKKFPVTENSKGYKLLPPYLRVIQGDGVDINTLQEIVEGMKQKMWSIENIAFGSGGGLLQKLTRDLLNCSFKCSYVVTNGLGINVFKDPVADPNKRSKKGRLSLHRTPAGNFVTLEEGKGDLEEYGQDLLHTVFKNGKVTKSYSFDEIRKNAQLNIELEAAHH
Test: Time-Resolved Fluorescence Resonance Energy Transfer (TR-FRET) Binding Assay of NAMPT
Conditions: 6.8 nM NAMPT, 200 nM probe, equilibrated 3 hours, absence of substrates
Listed here: items and their measured IC50.
Output spec: scalar in µM, unitless text.

These recorded examples may help you get a feel for the data.
1) COCCOCC(=O)N1CCC(c2ccc(NC(=O)C3CN(c4cccnc4C)C3)cc2)CC1    1.04
2) Cc1ncccc1N1CC(C(=O)Nc2ccc(C3CCN(C(=O)c4cccc(Cl)c4)CC3)cc2)C1    0.266
3) CCC(CC)CN1CCC(c2ccc(NC(=O)C3CN(c4cccnc4)C3)cc2)CC1    0.784

Note: attention shifts to another entry.
GET /values?readout=IC50&item= `Cc1ncccc1N1CC(C(=O)Nc2ccc(C3CCN(C(=O)c4cccnn4)CC3)cc2)C1`
2.9
